target of assay: FGFR2 V564F (Homo sapiens, UniProt P21802, V564F)
Construct: purchased Signalchem F05-12FG
Sequence (P21802 22-821 V564F): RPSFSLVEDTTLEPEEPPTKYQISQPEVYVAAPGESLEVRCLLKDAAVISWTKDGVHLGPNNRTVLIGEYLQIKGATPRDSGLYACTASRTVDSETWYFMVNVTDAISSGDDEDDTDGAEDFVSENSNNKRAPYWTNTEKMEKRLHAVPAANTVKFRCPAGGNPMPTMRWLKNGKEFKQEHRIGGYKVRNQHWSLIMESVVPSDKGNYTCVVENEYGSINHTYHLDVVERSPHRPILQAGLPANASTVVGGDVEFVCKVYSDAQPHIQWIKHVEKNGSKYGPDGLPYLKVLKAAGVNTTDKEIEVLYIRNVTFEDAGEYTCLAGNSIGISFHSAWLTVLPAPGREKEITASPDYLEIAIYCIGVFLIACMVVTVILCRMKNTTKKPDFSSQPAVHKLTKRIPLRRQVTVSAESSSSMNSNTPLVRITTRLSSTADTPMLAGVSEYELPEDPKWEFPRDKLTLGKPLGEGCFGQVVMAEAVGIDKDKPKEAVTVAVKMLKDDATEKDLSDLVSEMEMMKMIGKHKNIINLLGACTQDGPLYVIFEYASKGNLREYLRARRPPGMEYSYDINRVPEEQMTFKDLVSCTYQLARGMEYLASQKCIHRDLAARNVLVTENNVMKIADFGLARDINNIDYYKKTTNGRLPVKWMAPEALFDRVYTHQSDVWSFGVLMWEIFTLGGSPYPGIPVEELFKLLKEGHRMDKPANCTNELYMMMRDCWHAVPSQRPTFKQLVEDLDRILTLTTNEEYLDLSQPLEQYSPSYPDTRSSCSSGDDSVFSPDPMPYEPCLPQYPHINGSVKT
procedure summary: Assay III: inhibitory activity against FGFR mutants (method of Assay I, different operator)
Assay type: biochemical
test settings: Table 3; same method as Assay I, different experimental operator
# binning rule on IC50: low-valued: < 0.3 nM; mid-valued: ≥ 0.3 nM and < 0.4 nM; high-valued: ≥ 0.4 nM

compound="CC(Oc1ccc2[nH]nc(C(=O)Nc3cnn(CC(=O)N4CCCC4)c3)c2c1)c1c(Cl)cncc1Cl (stereo not drawn) [Compound 23]" target_of_assay="FGFR2 V564F (Homo sapiens, UniProt P21802, V564F)" group=high-valued
compound="C[C@@H](O)Cn1cc(NC(=O)c2n[nH]c3ccc(O[C@H](C)c4c(Cl)cncc4Cl)cc23)cn1 [Compound 33]" target_of_assay="FGFR2 V564F (Homo sapiens, UniProt P21802, V564F)" group=mid-valued
compound="C[C@@H](Oc1ccc2[nH]nc(C(=O)Nc3cnn(C4CCOCC4)c3)c2c1)c1c(Cl)cncc1Cl [Compound 47]" target_of_assay="FGFR2 V564F (Homo sapiens, UniProt P21802, V564F)" group=high-valued
compound="C[C@@H](Oc1ccc2[nH]nc(C(=O)Nc3cnn(Cc4ccncc4)c3)c2c1)c1c(Cl)cncc1Cl [Compound 50]" target_of_assay="FGFR2 V564F (Homo sapiens, UniProt P21802, V564F)" group=mid-valued
compound="C[C@H](O)Cn1cc(NC(=O)c2n[nH]c3ccc(O[C@H](C)c4c(Cl)cncc4Cl)cc23)cn1 [Compound 32]" target_of_assay="FGFR2 V564F (Homo sapiens, UniProt P21802, V564F)" group=mid-valued
compound="CC(Oc1ccc2[nH]nc(C(=O)Nc3cnn(CCN4CCCC4)c3)c2c1)c1c(Cl)cncc1Cl (stereo not drawn) [Compound 25]" target_of_assay="FGFR2 V564F (Homo sapiens, UniProt P21802, V564F)" group=low-valued
compound="C[C@@H](Oc1ccc2[nH]nc(C(=O)Nc3cnn(CC4CCN(C)C4)c3)c2c1)c1c(Cl)cncc1Cl (stereo partly drawn) [Compound 41]" target_of_assay="FGFR2 V564F (Homo sapiens, UniProt P21802, V564F)" group=low-valued
compound="C[C@@H](Oc1ccc2[nH]nc(C(=O)Nc3cnn(C4CC(O)C4)c3)c2c1)c1c(Cl)cncc1Cl (stereo partly drawn) [Compound 35]" target_of_assay="FGFR2 V564F (Homo sapiens, UniProt P21802, V564F)" group=low-valued
compound="CC(Oc1ccc2[nH]nc(C(=O)Nc3ccc(CN4CCOCC4)cc3)c2c1)c1c(Cl)cncc1Cl (stereo not drawn) [Compound 30]" target_of_assay="FGFR2 V564F (Homo sapiens, UniProt P21802, V564F)" group=high-valued
compound="C[C@@H](Oc1ccc2[nH]nc(C(=O)Nc3cnn(CC4CCCN4C)c3)c2c1)c1c(Cl)cncc1Cl (stereo partly drawn) [Compound 42]" target_of_assay="FGFR2 V564F (Homo sapiens, UniProt P21802, V564F)" group=high-valued
compound="C[C@@H](Oc1ccc2[nH]nc(C(=O)Nc3cnn(CCN(C)C)c3)c2c1)c1c(Cl)cncc1Cl [Compound 36]" target_of_assay="FGFR2 V564F (Homo sapiens, UniProt P21802, V564F)" group=low-valued
compound="C[C@@H](Oc1ccc2[nH]nc(C(=O)Nc3cnn(CC4CCCCN4C)c3)c2c1)c1c(Cl)cncc1Cl (stereo partly drawn) [Compound 45]" target_of_assay="FGFR2 V564F (Homo sapiens, UniProt P21802, V564F)" group=low-valued
compound="CCN1CC(Cn2cc(NC(=O)c3n[nH]c4ccc(O[C@H](C)c5c(Cl)cncc5Cl)cc34)cn2)C1 [Compound 39]" target_of_assay="FGFR2 V564F (Homo sapiens, UniProt P21802, V564F)" group=low-valued
compound="C[C@@H](Oc1ccc2[nH]nc(C(=O)Nc3cnn(CCN4CCOCC4)c3)c2c1)c1c(Cl)cncc1Cl [Compound 37]" target_of_assay="FGFR2 V564F (Homo sapiens, UniProt P21802, V564F)" group=high-valued
compound="CC(Oc1ccc2[nH]nc(C(=O)Nc3cnn(CC(F)(F)F)c3)c2c1)c1c(Cl)cncc1Cl (stereo not drawn) [Compound 28]" target_of_assay="FGFR2 V564F (Homo sapiens, UniProt P21802, V564F)" group=high-valued
compound="CC(Oc1ccc2[nH]nc(C(=O)Nc3cnn(C4CCC4)c3)c2c1)c1c(Cl)cncc1Cl (stereo not drawn) [Compound 27]" target_of_assay="FGFR2 V564F (Homo sapiens, UniProt P21802, V564F)" group=high-valued
compound="CC(Oc1ccc2[nH]nc(C(=O)Nc3cnn(CCCO)c3)c2c1)c1c(Cl)cncc1Cl (stereo not drawn) [Compound 29]" target_of_assay="FGFR2 V564F (Homo sapiens, UniProt P21802, V564F)" group=high-valued
compound="C[C@@H](Oc1ccc2[nH]nc(C(=O)Nc3cnn(C4CCN(C)C4)c3)c2c1)c1c(Cl)cncc1Cl (stereo partly drawn) [Compound 43]" target_of_assay="FGFR2 V564F (Homo sapiens, UniProt P21802, V564F)" group=low-valued
compound="CC(Oc1ccc2[nH]nc(C(=O)Nc3cnn(CC(=O)N(C)C)c3)c2c1)c1c(Cl)cncc1Cl (stereo not drawn) [Compound 24]" target_of_assay="FGFR2 V564F (Homo sapiens, UniProt P21802, V564F)" group=high-valued
